// values below are reported MRT inf
- testDescription: Pharmacokinetic study in rat plasma after oral administration of Asarum essential oil extracts (GC-MS)
- Assay type: in vivo, Sprague–Dawley rats
- conditionsUsed: male, Sprague-Dawley, in vivo, oral Asarum extracts 20 g/kg, n = 6, mean ± SD, read-out: MRT(0 − ∞)
Give your result in h as a bare value.

- molSmiles: "C=CCc1ccc(OC)c(OC)c1"
  MRT inf (h): 10.6

Lab book: MRT inf of `C=CCc1ccc2c(c1)OCO2` noted as 18.4

---

- testDescription: Pharmacokinetic study in rat plasma after oral administration of Asarum essential oil extracts (GC-MS)
- Type: in vivo, Sprague–Dawley rats
- conditionsUsed: male, Sprague-Dawley, in vivo, oral Asarum extracts 20 g/kg, n = 6, mean ± SD
outcomeMeasure: AUC(0-inf)
The reply should read as a number followed by its unit.

- molSmiles: "C=CCc1ccc2c(c1)OCO2"
  outcomeMeasure: "AUC(0-inf)"
  valueObserved: "53000 ng·h/mL"

For record `C=CCc1ccc(OC)c(OC)c1` the listed AUC(0-inf) is 15300 ng·h/mL

---

The entries below are paired with their reported AUC(0-t).
- testDescription: Pharmacokinetic study in rat plasma after oral administration of Asarum essential oil extracts (GC-MS)
- Type: in vivo, Sprague–Dawley rats
- conditionsUsed: male, Sprague-Dawley, in vivo, oral Asarum extracts 20 g/kg, n = 6, mean ± SD
- Excerpt: The GC–MS system (Shimadzu GC-MS QP-2010 Ultrasystem) was coupled with an AOC-20i autosampler. The column used was a DB-17 capillary column (30 m × 0.25 mm × 0.25 μm film thickness). […] The MS data were acquired in the electron-impact mode, and the SIM mode was used for quantification. The three characteristic ions of safrole were 162.0, 131.0, and 104.0 and that of methyl eugenols were 178.0, 163.0, and 147.0 (ions in bold fonts were used for the quantification). […]
Please reply with the bare figure in ng·h/mL and do not write the unit itself.

- molSmiles: "C=CCc1ccc2c(c1)OCO2"
  unitOfMeasurement: "ng·h/mL"
  AUC(0-t): 53000

// field: AUC(0-t); key: `C=CCc1ccc(OC)c(OC)c1` ; value = 15200

---

- testDescription: Pharmacokinetic study in rat plasma after oral administration of Asarum essential oil extracts (GC-MS)
- Format: in vivo, Sprague–Dawley rats
- conditionsUsed: male, Sprague-Dawley, in vivo, oral Asarum extracts 20 g/kg, n = 6, mean ± SD, read-out: MRT(0 − t)
Property: MRT last; scope: individual molecules

- molSmiles: "C=CCc1ccc2c(c1)OCO2"
  valueObserved: "18.4 h"

--- query ---
Looking up `C=CCc1ccc(OC)c(OC)c1` , I see its MRT last listed as 10.6 h

---

- testDescription: Pharmacokinetic study in rat plasma after oral administration of Asarum essential oil extracts (GC-MS)
- Assay type: in vivo, Sprague–Dawley rats
- conditionsUsed: male, Sprague-Dawley, in vivo, elimination half-life, oral Asarum extracts 20 g/kg, n = 6, mean ± SD
Entries and their measured half-life follow.
Give just the number in h; leave the unit off.

- molSmiles: "C=CCc1ccc2c(c1)OCO2"
  unitOfMeasurement: "h"
  valueObserved: 2.44

Now consider the entry below.
The molecule identified as `C=CCc1ccc(OC)c(OC)c1` registered its half-life at 3.67

---

- testDescription: Pharmacokinetic study in rat plasma after oral administration of Asarum essential oil extracts (GC-MS)
- Assay type: in vivo, Sprague–Dawley rats
- conditionsUsed: male, Sprague-Dawley, in vivo, oral Asarum extracts 20 g/kg, n = 6, mean ± SD
# Tmax per entry
Numeric answer only, unit h assumed.

- molSmiles: "C=CCc1ccc2c(c1)OCO2"
  unitOfMeasurement: "h"
  valueObserved: 13

The value of Tmax measured for the compound `C=CCc1ccc(OC)c(OC)c1` turned out to be 6.67

---

- testDescription: Pharmacokinetic study in rat plasma after oral administration of Asarum essential oil extracts (GC-MS)
- Assay type: in vivo, Sprague–Dawley rats
- conditionsUsed: male, Sprague-Dawley, in vivo, as stated in text without unit, oral Asarum extracts 20 g/kg
Each record here notes measured Cmax.
Provide the measurement as a number trailed by its unit.

- compound: "C=CCc1ccc2c(c1)OCO2 [Safrole]"
  Cmax: "1980 ng/mL"

Proceed to the following item.
Cmax in this record for C=CCc1ccc(OC)c(OC)c1 [Methyl eugenol] : 823 ng/mL

---

- testDescription: Pharmacokinetic study in rat plasma after oral administration of Asarum essential oil extracts (GC-MS)
- Type: in vivo, Sprague–Dawley rats
- conditionsUsed: male, Sprague-Dawley, in vivo, 0−t or 0−∞ not specified, oral Asarum extracts 20 g/kg, read-out: mean residence time
outcomeMeasure: MRT (h)
Just the number in h, nothing appended.

- molecule: "C=CCc1ccc(OC)c(OC)c1 [Methyl eugenol]"
  valueObserved: 10.6

Here is another molecule to look at.
# MRT of C=CCc1ccc2c(c1)OCO2 [Safrole] = 18.4
